Each entry below carries its reported pIC50.
- ASSAY_DETAILS: Displacement of [3H]D-888 from canine cardiac calcium channel
- Assay type: tissue-based, Canis lupus familiaris, Heart
Scale note: pIC50 = -log10(concentration in M).

Reference set (4 entries):
CHEMICAL_SMILES	READOUT_VALUE
CN1Cc2ccccc2[C@H](c2ccc(F)cc2F)N=C1CCc1ccc(NS(C)(=O)=O)cc1.Cl	6.30
CSc1ccc([C@@H]2N=C(OCc3ccc(NS(C)(=O)=O)cc3)N(C)Cc3ccccc32)cc1.Cl	5.96
CSc1ccc([C@H]2N=C(OCc3ccc(NS(C)(=O)=O)cc3)N(C)Cc3ccccc32)cc1.Cl	6.15
CN1Cc2ccccc2[C@H](c2ccccc2)N=C1OCc1ccc(NS(C)(=O)=O)cc1.O=C(O)/C=C/C(=O)O	6.05

Please find the next molecule below.
Ask | pIC50 for CN1Cc2ccccc2[C@@H](c2ccc(F)cc2F)N=C1CCc1ccc(NS(C)(=O)=O)cc1.Cl ?
Reply | 5.96
